Lab note - cut at 3 for logP: condition met if strictly below, condition not met if not.

Answered cases to consult:
> print(dat)
                                   compound        label.value
1  O=C1CC(c2ccccc2)c2ccccc2N1 (stereo not given)      condition met
2                        c1ccc(C2CCNCC2)cc1      condition met
3                     c1ccc(-c2nc[nH]n2)cc1      condition met
4                O=C1C=CC(=O)C(c2ccccc2)=C1      condition met
5                 c1ccc(-c2cnc3ccccc3n2)cc1  condition not met

Q) Strictly below 3: is that where logP of c1ccc(C2CCCN2)cc1 (stereo not given) sits?
A) condition met

Q) Strictly below 3: is that where logP of O=C1Nc2ccccc2C1c1ccccc1 (stereo not given) sits?
A) condition met

Q) Strictly below 3: is that where logP of c1ccc(-c2ccncc2)cc1 sits?
A) condition met

Q) Strictly below 3: is that where logP of O=c1[nH]nc(-c2ccccc2)c2ccccc12 sits?
A) condition met

Q) Strictly below 3: is that where logP of O=C1CCC(c2ccccc2)CC1 sits?
A) condition met

----------
VALUE KIND: logP
Numbers only.

Q) What value of logP has been recorded for this entry: O=c1[nH]cnc2ccccc12
A) 0.77

----------
VALUE KIND: logP
One number for each entry.

Some molecules with recorded logP:
> print(dat)
                                   molecule  value.kind  numeric.value
1                     c1ccc(-c2c[nH]nn2)cc1        logP           1.91
2               c1ccc(-c2nc3ccccc3[nH]2)cc1        logP            3.3
3  O=C1Nc2ccccc2CC1c1ccccc1 (stereo not given)        logP           2.93

Please go through the list and note logP for each molecule.
1. c1ccc(-c2nccs2)cc1
2. c1ccc(-c2nc3ccccc3o2)cc1

A)
[2.77, 3.67]

----------
Kindly supply the reported logP values for the records listed here.
Give bare numbers.

> print(dat)
                     entry.smiles  numeric.value
1    O=c1[nH]c2ccccc2cc1-c1ccccc1           2.99
2    O=C1NC(=O)C(c2ccccc2)C(=O)N1          -0.17
3  O=C1NC(=O)c2cc(-c3ccccc3)ccc21           2.97
4                O=C1CCc2ccccc2N1           1.34

Consider the additional compound presented here.
Q) What value of logP has been recorded for this entry: c1ccc(-c2ncc3ccccc3n2)cc1
A) 3.42
